Exercise: state measured recovery for each of the compounds provided.
- Procedure details: Caco-2 permeability determination
- Assay type: in vitro ADME
- Run parameters: human, Caco-2, Caco-2, B→A; read-out: Recovery B→A
Dear colleague, please return just the value in %, with no unit written.

Could you tell me which recovery is on file for C[C@H]1O[C@@H](O[C@H]2[C@@H](O)C[C@H](O[C@H]3[C@@H](O)C[C@H](O[C@H]4CC[C@@]5(C)[C@H](CC[C@@H]6[C@@H]5C[C@@H](O)[C@]5(C)[C@@H](C7=CC(=O)OC7)CC[C@]65O)C4)O[C@@H]3C)O[C@@H]2C)C[C@H](O)[C@@H]1O [Digoxin] ?
99.2

Similarly, NC(=O)c1cccc(-c2cnc3[nH]cc(-c4ccoc4)c3c2)c1 [Compound 12] ?
108

Similarly, CC(C)NCC(O)COc1cccc2ccccc12 (stereo not shown) [Propranolol] ?
107

Similarly, CC(C)(C)NCC(O)COc1cccc2c1CC(O)C(O)C2 (stereo not shown) [Nadolol] ?
111

----------
- Test system: MV4-11
- Procedure details: Antiproliferative CCK-8 assay, MV4-11
- Assay type: cell-based
- Run parameters: Homo sapiens; MV4-11, CCK-8 assay, means ± SD; read-out: GC50 (the source's name)
Parameter measured: IC50

Could you tell me which IC50 is on file for NC(=O)c1cccc(-c2cnc3[nH]cc(-c4ccsc4)c3c2)c1 ?
360 nM

Similarly, NC(=O)c1cccc(-c2cnc3[nH]cc(-c4cccc(Cl)c4)c3c2)c1 ?
> 50000 nM

Similarly, NC(=O)c1cccc(-c2cnc3[nH]cc(-c4ccoc4)c3c2)c1 ?
30 nM

Similarly, Cc1c(Br)c(Br)c2c3c1nc(N1CCNCC1)n3CCC2 [SEL-120-34A, reference compound] ?
7 nM

----------
- Procedure details: In vivo pharmacokinetic evaluation
- Run parameters: blood, iv, 2 mg/kg, 2 mg/kg (iv)
Parameter measured: AUC(0-inf) (ng·h/mL)
Dear colleague, please return just the value in ng·h/mL, with no unit written.

Could you tell me which AUC(0-inf) is on file for NC(=O)c1cccc(-c2cnc3[nH]cc(-c4ccoc4)c3c2)c1 ?
830

----------
- Procedure details: In vivo pharmacokinetic evaluation
- Run parameters: blood; 10 mg/kg (po)
Parameter measured: Tmax (min)
Dear colleague, please return just the value in min, with no unit written.

Could you tell me which Tmax is on file for NC(=O)c1cccc(-c2cnc3[nH]cc(-c4ccoc4)c3c2)c1 [Compound 12] ?
52.8

----------
Exercise: state measured pIC50 for each of the compounds provided.
- Test system: HT-29
- Procedure details: Antiproliferative CCK-8 assay, HT-29
- Assay type: cell-based
- Run parameters: Homo sapiens; HT-29, CCK-8 assay, means ± SD; read-out: GC50 (the source's name)
- Source text: Compounds12, 13 and 30 were selected for further cell activity assessments based on the enzymatic activity assessment results. molm-13 and MV4-11(acute myeloid lineage leukaemia cells), MGC-803 (gastric cancer cell), MDA-MB-231(breast cancer cell), A375 (melanoma cell), A549 (lung cancer cell), HCT-116, SW-480 and HT-29 (colorectal cancer cells) were selected to evaluate antitumor activity in vitro, GES-1 (gastric mucosal epithelial cell) was selected to evaluate toxicity in vitro. […]
Schema: pIC50 number; meaning minus log10 of the concentration expressed in molar units.

Could you tell me which pIC50 is on file for NC(=O)c1cccc(-c2cnc3[nH]cc(-c4ccoc4)c3c2)c1 ?
5.08

Similarly, NC(=O)c1cccc(-c2cnc3[nH]cc(-c4ccsc4)c3c2)c1 ?
5.03

Similarly, Cc1c(Br)c(Br)c2c3c1nc(N1CCNCC1)n3CCC2 [SEL-120-34A, reference compound] ?
4.47
